# test.method.notes: Pharmacokinetics of AG10 in dogs, oral gavage, Study No. 1
# Format: in vivo
# measurement.setup: both sexes, dog, plasma, 0.5% MC formulation, 20 mg/kg oral gavage, sex MF combined, read-out: AUC0-24
endpoint.label: AUC(0-t) (ng·h/mL)
// return numeric value only (unit: ng·h/mL, not printed)

Form: compound = Cc1n[nH]c(C)c1CCCOc1cc(C(=O)O)ccc1F ; AUC(0-t) = 69100

====

# test.method.notes: Pharmacokinetics of AG10 tablets and capsule given orally to male beagle dogs, Study No. 3
# Format: in vivo
# measurement.setup: male, beagle, dog, plasma, po, 50 mg, tablet 50 mg oral, male dogs, read-out: AUC0-24
endpoint.label: AUC(0-t) (ng·h/mL)
// return numeric value only (unit: ng·h/mL, not printed)

Form: compound = Cc1n[nH]c(C)c1CCCOc1cc(C(=O)O)ccc1F ; AUC(0-t) = 41500

====

# test.method.notes: Pharmacokinetics of AG10 tablets and capsule given orally to male beagle dogs, Study No. 3
# Type: in vivo
# measurement.setup: male, beagle, dog, plasma, po, 200 mg, tablet 200 mg oral, male dogs
# Method: AG10 was administered orally to 4 male beagle dogs each as a 50 mg tablet, 200 mg tablet, and a 200 mg capsule (No. 3). Blood samples were collected at pre-dose and approximately 0.25, 0.5, 1, 2, 4, 8, 24, 48, 72 and 96 hours post-dose. Plasma samples were assayed for AG10 by LC-MS/MS.
endpoint.label: Cmax (ng/mL)
// return numeric value only (unit: ng/mL, not printed)

Form: molecule = Cc1n[nH]c(C)c1CCCOc1cc(C(=O)O)ccc1F [AG10] ; Cmax = 13000

====

# test.method.notes: Pharmacokinetics of AG10 after oral administration in beagle dogs, Study No. 2
# Format: in vivo
# measurement.setup: both sexes, dog, plasma, 20 mg/kg, gelatin capsule without excipients, 20 mg/kg oral, sex MF
# Experimental: The pharmacokinetics of AG10 were also determined following oral administration in non-naïve male and female beagle dogs (Study No. 2). The study design included three treatment groups (n=2/sex/group). Groups 1 and 2 received 5 mg/kg and 20 mg/kg AG10 in 0.5% methylcellulose (MC) formulations respectively. Group 3 animals received 20 mg/kg AG10 in gelatin capsule form. Blood samples were collected at pre-dose and approximately 2, 4, 6, 8, 12, and 24 hours post-dose. […]
endpoint.label: Cmax (ng/mL)
// return numeric value only (unit: ng/mL, not printed)

Form: molecule = Cc1n[nH]c(C)c1CCCOc1cc(C(=O)O)ccc1F ; Cmax = 10300

====

# test.method.notes: Pharmacokinetics of AG10 after oral administration in beagle dogs, Study No. 2
# Assay type: in vivo
# measurement.setup: both sexes, dog, plasma, 20 mg/kg, gelatin capsule without excipients, 20 mg/kg oral, sex MF, read-out: AUC0-24
endpoint.label: AUC(0-t) (µg·h/mL)
// return numeric value only (unit: µg·h/mL, not printed)

Form: molecule = Cc1n[nH]c(C)c1CCCOc1cc(C(=O)O)ccc1F [AG10] ; AUC(0-t) = 89.3

====

# test.method.notes: Pharmacokinetics of AG10 in dogs, oral gavage, Study No. 1
# Type: in vivo
# measurement.setup: both sexes, dog, plasma, 0.5% MC formulation, 20 mg/kg oral gavage, sex MF combined
# Procedure: Pharmacokinetics of AG10 were determined when administered once daily to dogs via oral gavage at 20, 60, and 200 mg/kg for 3 days (Study No. 1). Each group consisted of two animals/sex/group. Blood samples were collected from each animal on Day 1 at pre-dose, 0.25, 0.5, 1, 2, 4, 8, 12 and 24 hours post-dose, Day 3 at pre-dose, 0.25, 0.5, 1, 2, 4, 8, 12, 24, 48 and 72 hr post-dose. Plasma samples were assayed for AG10 by LC-MS/MS. […]
endpoint.label: Cmax (ng/mL)
// return numeric value only (unit: ng/mL, not printed)

Form: compound = Cc1n[nH]c(C)c1CCCOc1cc(C(=O)O)ccc1F ; Cmax = 16100

====

# test.method.notes: Pharmacokinetics of AG10 tablets and capsule given orally to male beagle dogs, Study No. 3
# Assay type: in vivo
# measurement.setup: male, beagle, dog, plasma, po, 200 mg, 200 mg tablets, dogs, read-out: time to maximal concentration (T max)
# Experimental: AG10 was administered orally to 4 male beagle dogs each as a 50 mg tablet, 200 mg tablet, and a 200 mg capsule (No. 3). Blood samples were collected at pre-dose and approximately 0.25, 0.5, 1, 2, 4, 8, 24, 48, 72 and 96 hours post-dose. Plasma samples were assayed for AG10 by LC-MS/MS.
endpoint.label: Tmax (h)
// return numeric value only (unit: h, not printed)

Form: compound = Cc1n[nH]c(C)c1CCCOc1cc(C(=O)O)ccc1F [AG10] ; Tmax = 1

====

# test.method.notes: Pharmacokinetics of AG10 after oral administration in beagle dogs, Study No. 2
# Format: in vivo
# measurement.setup: both sexes, dog, plasma, 20 mg/kg, capsule formulated without excipients, read-out: time to maximal concentration (T max)
endpoint.label: Tmax (h)
// return numeric value only (unit: h, not printed)

Form: molecule = Cc1n[nH]c(C)c1CCCOc1cc(C(=O)O)ccc1F ; Tmax = 2
